Measured values drawn from patent US12246076B2 for this set.

Entries and their tissue uptake at 1 h
- assay_name: in vivo
- details: male, NRG, mouse, iv, total radioactivity, Biodistribution Adrenal Mean
Numbered stars: 1 amine (or outer) side, 2 acyl side, 3 side chain; on linkers, the order of the positions; unused ones are H or OH. Square brackets hold non-standard residues; d marks the D form. Peptide text beside a SMILES is read from it. * marks the point of attachment. DOTA = O=C(O)CN1CCN(CC(=O)O)CCN(CC(=O)*)CCN(CC(=O)O)CC1; Leuψ(CH2N)ThzNH2 = CC(C)C[C@@H](CN1CSC[C@H]1C(N)=O)N*; NMeH = CN[C@@H](Cc1c[nH]cn1)C(=O)O; X1 = O=C(CN1CCC(N[*:1])CC1)[*:2]; Tle = CC(C)(C)[C@H](N)C(=O)O; Thz = O=C(O)[C@@H]1CSCN1
Form entry: value (%ID/g) — number only.

Let me know recorded tissue uptake at 1 h for CC(C)C[C@H](NC(=O)[C@H](Cc1cnc[nH]1)N(C)C(=O)CNC(=O)[C@@H](NC(=O)[C@H](C)NC(=O)[C@H](Cc1c[nH]c2ccccc12)NC(=O)[C@H](CCC(N)=O)NC(=O)[C@@H](Cc1ccccc1)NC(=O)CN1CCC(NC(=O)CN2CCN(CC(=O)O)CCN(CC(=O)O)CCN(CC(=O)O)CC2)CC1)C(C)(C)C)C(=O)N1CSC[C@H]1C(N)=O [^68Ga-LW01110, metal not drawn] , thanks.
1.64

Let me know recorded tissue uptake at 1 h for CC(C)C[C@H](NC(=O)[C@H](Cc1c[nH]cn1)NC(=O)CNC(=O)[C@@H](NC(=O)[C@H](C)NC(=O)[C@H](Cc1c[nH]c2ccccc12)NC(=O)[C@H](CCC(N)=O)NC(=O)[C@@H](Cc1ccccc1)NC(=O)CN1CCC(NC(=O)CN2CCN(CC(=O)O)CCN(CC(=O)O)CCN(CC(=O)O)CC2)CC1)C(C)(C)C)C(=O)N1CSC[C@H]1C(N)=O [^68Ga-LW01108, metal not drawn] , thanks.
1.51

Let me know recorded tissue uptake at 1 h for CC(C)C[C@@H](CN1CSC[C@H]1C(N)=O)NC(=O)[C@H](Cc1c[nH]cn1)NC(=O)CNC(=O)[C@@H](NC(=O)[C@H](C)NC(=O)[C@H](Cc1c[nH]c2ccccc12)NC(=O)[C@H](CCC(N)=O)NC(=O)[C@@H](Cc1ccccc1)NC(=O)CN1CCC(NC(=O)CN2CCN(CC(=O)O)CCN(CC(=O)O)CCN(CC(=O)O)CC2)CC1)C(C)(C)C [^68Ga-LW01158, metal not drawn] ({DOTA}-[X1][dF]QWA[Tle]GH-{Leuψ(CH2N)ThzNH2}) , thanks.
1.37

Let me know recorded tissue uptake at 1 h for CC(C)C[C@H](NC(=O)[C@H](Cc1cnc[nH]1)N(C)C(=O)CNC(=O)[C@@H](NC(=O)[C@H](C)NC(=O)[C@H](Cc1c[nH]c2ccccc12)NC(=O)[C@H](Cc1c[nH]cn1)NC(=O)[C@@H](Cc1ccccc1)NC(=O)CN1CCC(NC(=O)CN2CCN(CC(=O)O)CCN(CC(=O)O)CCN(CC(=O)O)CC2)CC1)C(C)(C)C)C(=O)N1CSC[C@H]1C(N)=O [^68Ga-LW01142, metal not drawn] ({DOTA}-[X1][dF]HWA[Tle]G[NMeH]L[Thz]-NH2) , thanks.
2.07
